Each entry below carries its recorded folding stability dG.
B1: EHEE_rd4_0726 (parent)
chain: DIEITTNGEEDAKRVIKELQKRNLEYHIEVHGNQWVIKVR

# Variants of: B1
# assay.protocol: folding stability dG (cDNA display proteolysis); higher = more stable
# applied.conditions: PBS, room temperature
Give just the numeric value; kcal/mol need not be written.

Examples with answers:
INSERT INTO results (mutation_list, measure_name, readout_units, measured_value) VALUES
  ('W35N', 'folding stability dG', 'kcal/mol', -0.421),
  ('R22F', 'folding stability dG', 'kcal/mol', 2.39),
  ('T6A', 'folding stability dG', 'kcal/mol', 2.62),
  ('I16E', 'folding stability dG', 'kcal/mol', 1.34);

Briefly, folding stability dG measured for W35M : 1.44

Item: T5V | folding stability dG: 3.03
